Listed next: entries and their corresponding inhibition.
Target: Mitogen-activated protein kinase 13 (Homo sapiens) (UniProt O15264);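 further: mean inhibition of p38delta, screened as part of the GSK PKIS kinase inhibitor set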
Sequence (whole entry): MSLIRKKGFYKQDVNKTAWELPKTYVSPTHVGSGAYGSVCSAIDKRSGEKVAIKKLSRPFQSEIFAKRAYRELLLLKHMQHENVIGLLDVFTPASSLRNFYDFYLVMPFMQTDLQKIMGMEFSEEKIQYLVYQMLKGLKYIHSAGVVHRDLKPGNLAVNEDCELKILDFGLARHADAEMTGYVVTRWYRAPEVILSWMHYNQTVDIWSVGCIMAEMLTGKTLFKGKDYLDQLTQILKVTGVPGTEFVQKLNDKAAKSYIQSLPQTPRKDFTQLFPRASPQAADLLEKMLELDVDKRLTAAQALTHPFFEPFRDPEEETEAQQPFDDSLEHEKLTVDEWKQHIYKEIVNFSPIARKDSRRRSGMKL
Details: at 1 µM
Quantity Measured: inhibition (%)

compound=O=C(O[C@H]1CN[C@H](C#Cc2cc3ncnc(Nc4ccc5c(ccn5Cc5cc(F)ccc5F)c4)c3s2)C1)N1CCOCC1 result=5.7
compound=CNC(=O)c1ncccc1Nc1nc(Nc2cc3c(cc2OC)CCCN3C(=O)CN(C)C)nc2[nH]ccc12 result=5.64
compound=COc1c(C(N)=O)cc(-c2ccc(Cl)cc2)cc1-c1ccc(S(N)(=O)=O)cc1 result=6.61
compound=Cc1ccc(-c2cc3c(NC(=O)C4CC4)ncnc3o2)cc1 result=4.2
compound=Cc1nnc(-c2cccc(-c3ccc(C(=O)NCC4CC4)cc3)c2)o1 result=3.54
compound=CCS(=O)(=O)c1ccc(OC)c(Nc2ncc(-c3cccc(F)c3)o2)c1 result=5.36
compound=FC(F)(F)CNc1nccc(-c2cnn3ncccc23)n1 result=2.49
compound=CN1CCC(n2cnc(-c3ccc(F)cc3)c2-c2ccnc(NCCO)n2)CC1 result=4.31
compound=OCCCNc1nccc(-c2c(-c3ccc(F)cc3)nn3cc(C(F)(F)F)ccc23)n1 result=3.39
compound="CC1=C(C(=O)Nc2ccc3[nH]nc(C)c3c2)C(c2ccc(C(F)(F)F)cc2)CC(=O)N1 (configuration not stated)" result=6.03
compound=COc1ccccc1-c1cc(/C=C2\C(=O)Nc3ncc(Br)cc32)cc(Br)c1O result=9.18
compound=CCS(=O)(=O)c1ccc(OC)c(Nc2ncc(-c3cccc(C(C)=O)c3)o2)c1 result=3.45
compound=COC(=O)Nc1nc2cc(Oc3ccc(NC(=O)Nc4ccccc4)cc3)ccc2[nH]1 result=1.34
compound=Cn1c(-c2nonc2N)nc2cnccc21 result=2.42
compound=CC(C)c1ccc(-c2cc(-c3c[nH]nc3-c3ccccn3)ccn2)cc1 result=0.87
compound=CN(C)CCNC(=O)Nc1ccc(N(C)c2ccnc(Nc3ccc(CS(C)(=O)=O)cc3)n2)cc1 result=3.74
compound=COc1cccc(-n2ncc3c(N/N=C/c4ccc(C(=O)NCCN(C)C)cc4)ncnc32)c1 result=23.5

* * *

biological target: Tyrosine-protein kinase Tec (Homo sapiens); settings: at 0.1 µM
Description: GSK_PKIS: TEC mean inhibition at 0.1 uM [Nanosyn]
Quantity Measured: inhibition (%)

compound_structure=CS(=O)(=O)CCNCc1ccoc1-c1ccc2ncnc(Nc3ccc(OCc4ccccc4)cc3)c2c1 result=0.03
compound_structure=NC(=O)c1ccc2c(-c3ccnc(NCCCO)n3)c(-c3ccc(F)cc3)nn2c1 result=5.81
compound_structure=FC(F)(F)CNc1nccc(-c2cnn3ncccc23)n1 result=0.22
compound_structure=N#Cc1ccc2c(-c3ccnc(NC4CC4)n3)c(-c3ccc(F)cc3)nn2c1 result=-0.44
compound_structure=CN1CCC(n2cnc(-c3ccc(F)cc3)c2-c2ccnc(NCCO)n2)CC1 result=6.05
compound_structure=CS(=O)(=O)Nc1ccc(-c2ccc3c(NC(=O)C4CC4)n[nH]c3c2)cc1 result=3.96
compound_structure=COc1cc(Nc2ncc(-c3ccccc3)o2)cc(OC)c1 result=2.12
compound_structure=Cc1ccc(-c2cc3c(NC(=O)C4CC4)ncnc3o2)cc1 result=5.2
compound_structure=COc1ccc2ncn(-c3cc(O[C@H](C)c4ccccc4C(F)(F)F)c(C(N)=O)s3)c2c1 result=1.04
compound_structure=COc1cc(N2CCN(C(C)C)CC2)ccc1Nc1nc(Nc2cccc3ncccc23)c2cc[nH]c2n1 result=0.93
compound_structure=CC1(C)CC(n2cnc(-c3ccc(F)cc3)c2-c2ccnc(N)n2)CC(C)(C)N1 result=1.41
compound_structure=O=C(O[C@H]1CN[C@H](C#Cc2cc3ncnc(Nc4ccc5c(ccn5Cc5cc(F)ccc5F)c4)c3s2)C1)N1CCOCC1 result=4.74
compound_structure=Cc1cc(O)cc(C)c1/C=C/c1cncc(C(=O)OC(C)(C)C)c1 result=5.96
compound_structure=Cc1cc(O)cc(C)c1/C=C/c1cncc(C(N)=O)c1 result=5.81
